meta.source: PubChem BioAssay (NCI)

Tested on: COLO 205 colon
ASSAY_OVERVIEW: NCI tumour cell line growth inhibition, 48 h
Please respond with reported TGI for every item in the list.

INPUT: Can you share its TGI? I mean this compound: `COc1ccc(-c2cc(=O)c3ccccc3[nH]2)c(OC)c1`
OUTPUT: > 100 µM

INPUT: Now give it for `COc1ccccc1N1CCN(CCCN2/C(=C(\O)c3ccccc3)C(=O)c3c(C)cc(C)nc3S2(=O)=O)CC1` too.
OUTPUT: > 100 µM

INPUT: Now give it for `CSC1=N/C(=C\c2ccccc2)C(=O)N1CN1CCCCC1` too.
OUTPUT: > 100 µM

INPUT: Now give it for O=C(Nc1ccc(Cl)cc1Cl)C(=O)C(C(=O)c1ccncc1)C1OC(=O)c2ccccc21 (centres undefined) too.
OUTPUT: > 100 µM

INPUT: Now give it for COc1cc2c(c(OC)c1)C1(CC(CC#N)C2)SCCS1 (centres undefined) too.
OUTPUT: > 100 µM

INPUT: Now give it for `C=C1CC[C@H](O)C(C)(C)[C@@H]1CC/C(C)=C/CC/C=C(\C)CC/C=C(\C)CCC=C(C)C` too.
OUTPUT: > 100 µM

INPUT: Now give it for `CCOP(=O)(CN1CCNCCNCC1)OCC` too.
OUTPUT: > 100 µM

INPUT: Now give it for `Fc1ccc(-c2nn3ncccc3c2-c2ccnc(Nc3ccc4c(c3)OCCO4)n2)cc1` too.
OUTPUT: > 25 µM

INPUT: Now give it for C=C1CC[C@@H]2[C@](C)(COC(C)=O)[C@H](OC(C)=O)CC[C@@]2(C)[C@@H]1CC(Nc1ccc(S(=O)(=O)Nc2ncccn2)cc1)C1=CCOC1=O (some centres undefined) too.
OUTPUT: 3.8 µM

* * *

Test system: SF-539 CNS
ASSAY_OVERVIEW: NCI tumour cell line growth inhibition, 48 h
MEASURE: GI50

INPUT: Can you share its GI50? I mean this compound: C/C=C1/C(=C/c2[nH]c(/C=c3\[nH]/c(=C/C4=NC(=O)C(CC)=C4C)c(C)c3CCC(=O)O)c(CCC(=O)O)c2C)NC(=O)C1C (stereo unspecified)
OUTPUT: > 150 µg/mL

INPUT: Now give it for `Nc1nc(-c2cccc(Cl)c2)c(-c2ccc3ncccc3n2)s1` too.
OUTPUT: > 25 µM

INPUT: Now give it for COc1cc(/C=C2\CCCC3=C2NC(C)=NC3c2cc(OC)c(OC)c(OC)c2)cc(OC)c1OC (stereo unspecified) too.
OUTPUT: 1.55 µM

INPUT: Now give it for `CCNc1cc2c(cc1O)CC[C@@H]1[C@@H]2CC[C@]2(C)[C@@H](O)CC[C@@H]12` too.
OUTPUT: 0.741 µM

INPUT: Now give it for `COc1ccc(-c2nnc(COc3ccc(NC(=O)Nc4ccc(Cl)c(C(F)(F)F)c4)cc3F)o2)cc1` too.
OUTPUT: 5.01 µM

INPUT: Now give it for `COc1cc2c(c(OC)c1OC)C(=O)[C@@H]1c3ccc([N+](=O)[O-])cc3C(=O)N(CCCBr)[C@H]21` too.
OUTPUT: 11.8 µM

INPUT: Now give it for C=C(C)C1CCC2(C(=O)O)CCC3(C)C(CCC4C5(C)CCC(OC(=O)NCc6ccccc6)C(C)(C)C5CCC43C)C12 (stereo unspecified) too.
OUTPUT: 41.9 µM

INPUT: Now give it for `c1cc[c]([Pb]([c]2ccccc2)[c]2ccccc2)cc1` too.
OUTPUT: 14.2 µM

INPUT: Now give it for `CCc1oc2ccccc2c1C(=O)c1cc(I)c(O)c(I)c1` too.
OUTPUT: 2.28 µM

INPUT: Now give it for `Cc1ccc(C(=O)Nc2ccc(CN3CCN(C)CC3)c(C(F)(F)F)c2)cc1C#Cc1cnc(N)c2ccccc12` too.
OUTPUT: 0.729 µM

INPUT: Now give it for `O=C(O)[C@@H]1CCCCN1Cc1cc2cc3c(cc2c2cc(OCc4ccccc4)ccc12)OCO3` too.
OUTPUT: 3.87 µM

* * *

Test system: HCT-116 colon
ASSAY_OVERVIEW: NCI tumour cell line growth inhibition, 48 h
MEASURE: TGI

INPUT: Can you share its TGI? I mean this molecule: CC(=O)Nc1ccc2[nH]c(C(=O)N3CC(CCl)c4c3cc(N)c3ccccc43)cc2c1 (stereo not given)
OUTPUT: < 0.01 µM

INPUT: Now give it for `Cc1nc2ccccc2c(=O)n1-c1ccccc1F` too.
OUTPUT: > 100 µM

INPUT: Now give it for `COC1(OC)CC(CO)(CNc2nc(N)nc(Cl)c2/C=N\O)C1` too.
OUTPUT: > 100 µM

INPUT: Now give it for C=C1CC[C@@H]2[C@](C)(COC(C)=O)[C@H](OC(C)=O)CC[C@@]2(C)[C@@H]1CC(Nc1ccc(S(=O)(=O)Nc2ncccn2)cc1)C1=CCOC1=O (stereo not given in full) too.
OUTPUT: 2.49 µM

INPUT: Now give it for `COc1ccccc1N1CCN(CCCN2/C(=C(\O)c3ccccc3)C(=O)c3c(C)cc(C)nc3S2(=O)=O)CC1` too.
OUTPUT: > 100 µM

INPUT: Now give it for `CC(=NNC(=S)Nc1ccc(C)cc1)c1cccc(C(C)=NNC(=S)Nc2ccc(C)cc2)n1` too.
OUTPUT: 45.3 µM

INPUT: Now give it for `O=C(N/N=C\c1cccc(O)c1)c1ccncc1` too.
OUTPUT: > 100 µM

INPUT: Now give it for COc1cc(O)c2c(c1)OCC(Cc1ccc(O)cc1)C2=O (stereo not given) too.
OUTPUT: > 100 µM

INPUT: Now give it for `Cc1ccc(NC(=O)c2cccc(OP(=O)(O)Nc3ccc(C)cc3)c2)cc1` too.
OUTPUT: > 100 µM

INPUT: Now give it for O=c1[nH]c(=O)n(C2OC(CO)C(O)C(O)C2O)cc1F (stereo not given) too.
OUTPUT: > 100 µM

* * *

Tested on: HOP-62 NSCLC
ASSAY_OVERVIEW: NCI tumour cell line growth inhibition, 48 h
Please respond with reported TGI for every item in the list.

INPUT: Can you share its TGI? I mean this molecule: `CCOC(=O)CN=C1NNS(=O)(=O)c2ccccc21`
OUTPUT: > 100 µM

INPUT: Now give it for `OC/C=C(\I)CCCOCOCc1ccccc1` too.
OUTPUT: > 100 µM

INPUT: Now give it for COc1ccc(C2C3=C(Nc4ncnn42)c2ccccc2OC3c2ccccc2)cc1 (centres undefined) too.
OUTPUT: > 100 µM

INPUT: Now give it for `Cc1cc(=O)n2nc(CN3CCCCC3)sc2n1` too.
OUTPUT: > 100 µM

INPUT: Now give it for C=CC1(C)CCC2=C(CCC3C(C)(C(=O)OC)CCCC23C)C1=O (centres undefined) too.
OUTPUT: 31.3 µM

INPUT: Now give it for `N.N.O=C([O-])P(=O)([O-])[O-].[Na+].[Pt+4]` too.
OUTPUT: > 100 µM

INPUT: Now give it for `CC(=O)N[C@@H](Cc1ccc(O)cn1)C(=O)NCc1cccc(Cl)c1` too.
OUTPUT: > 100 µM

INPUT: Now give it for Cc1ccc(NC(=O)c2sc3nc(C)c(C(O)c4ccccc4)cc3c2N)cc1 (centres undefined) too.
OUTPUT: 23.6 µM

INPUT: Now give it for COc1ccc2c3c(coc13)C(CCC(=O)O)CC2 (centres undefined) too.
OUTPUT: > 100 µM

INPUT: Now give it for `CNC(=O)N1CN(c2ccccc2)C2(CCN(CCCC3(c4ccc(F)cc4)OCCO3)CC2)C1=O` too.
OUTPUT: > 100 µM

INPUT: Now give it for CCCCCN(CCCCC)CC(O)c1ccc(Cl)c2ccccc12 (centres undefined) too.
OUTPUT: 26.5 µM

INPUT: Now give it for `Cc1nc(-c2ccccc2)c(-c2ccccc2)s1` too.
OUTPUT: > 100 µM

INPUT: Now give it for `COc1cc(OC)c2c(=O)c(OC)c(-c3ccc4c(c3)OCO4)oc2c1` too.
OUTPUT: 74.6 µM

INPUT: Now give it for `COC/C=C\[C@]1(O)CCCC[C@@H]1CC(OC)OC` too.
OUTPUT: > 100 µM

* * *

Tested on: NCI-H226 lung
ASSAY_OVERVIEW: NCI tumour cell line growth inhibition, 48 h
Please respond with reported TGI for every item in the list.

INPUT: Param readout = TGI; param system = NCI-H226 lung; param query = COC(=O)C(COC(C)=O)NC(=O)/C=C/c1ccc(O)c(OC(C)=O)c1 (stereo not given) ; response: value
OUTPUT: > 100 µM

INPUT: Now give it for `CC(=O)O.[Au].c1ccc([PH+](c2ccccc2)c2ccccc2)cc1` too.
OUTPUT: 19.1 µM

INPUT: Now give it for NCCCCC(N)C(=O)NCCNc1ccc(NCCNC(=O)C(N)CCCCN)c2c1C(=O)c1ccccc1C2=O (stereo not given) too.
OUTPUT: > 100 µM

INPUT: Now give it for `O=C(/C=C/c1c(O)ccc2ccccc12)c1ccccc1` too.
OUTPUT: > 100 µM

INPUT: Now give it for `Clc1ccc(-c2c(C3=NCCCN3)nnn2-c2ccc(Cl)cc2)cc1` too.
OUTPUT: > 100 µM
